Entry source: patent US20160130327A1

testSystem: revertant virus (AD169 CMV with the pentameric gH complex restored)
methodDescription: cell-based or functional assay

{"columns": ["binder", "Neutralization in MRC-5 cells EC50 / mg/L"],
 "data": [
  ["347.3 (antibody, V domains shown, rabbit hybridoma mAb; also called clone 347.3) VH: QSLEESEGRLVTPGTPLTLTCTVSGIDLSTYAMNWVRQAPGKGLEWIGIIGSSGGAYYASWAKGRCTISKTSTTVDLKITSPTTEDTATYFCAVSLYTYDDYADYFLWGPGTLVTISS VL: ELVLTQSPSLSASLGTTARLTCTLSTGYSVGKYPLVWLQQVPGRPPRYLLTYHTEEFKHQGSGVHSRFSGSKDTSENSFVLRIFGLQPEDEADYYCVTAHPTESSLHYVFGGGTQLTVT", 100],
  ["212.6 (antibody, V domains shown, rabbit hybridoma mAb; also called clone 212.6) VH: QSLEESGGRLVTPGTPLTLTCTVSGFSLSSYAMSWVRQAPGKGLEWIGIIGSSGNTYYASWAKGRFTISKTSTTVDLKITSPTTEDTATYFCARGGYSYDDYTPFDLWGPGTLVTVSS VL: ELVLTQSPSLSASLGTTARLTCTLSTGYSVGKYPLVWLQQVPGRPPRYLLTYHTEEFKHQGSGVHSRFSGSKDTSENAGVLSISGLQPEDEADYYCATAHATESSLHYVFGGGTQLTVT", 100],
  ["223.4 (antibody, V domains shown, rabbit hybridoma mAb; also called clone 223.4) VH: QSLEESGGRLVTPGTPLTLTCTVSGFSLSAYSVSWVRQAPGKGLEWIGIIGHSGNTYYANWAKGRFTISKTSTTVDLKITSLTIEDTATYFCAREDYRYGDYGYYWDFNFWGPGTLVTISS VL: ELVMTQTPSPVSAPVGGTVTISCQASRSVYNENYVAWFQHRPGQPPKLLIYTTSILASGVPSRFKGRGSGTQFTLTISDVQCDDAATYYCAGDYDDNEENAFGGGTELEIL", 100]
]}
